assay: Cmax in rat at 10 mg/kg, po measured during 5 mins to 24 hrs post dose by LC-MS/MS method; type: ADME, organism-based; set-up: dose 10 mg/kg, route oral; conditions: in vivo
MEASURE NAME: Cmax (ng/mL)
Numbers only, in ng/mL.

Task: Identify measured Cmax associated with `CC(C)CN(C)c1ccc(-n2cc(C(=O)O)cn2)cc1C#N`
Output: 168

---

assay: Half life in rat at 10 mg/kg, po measured during 5 mins to 24 hrs post dose by LC-MS/MS method; format: ADME, organism-based; settings: in vivo
MEASURE NAME: half-life (h)
Give bare numbers, in h.

Task: Identify measured half-life associated with `CC(C)CN(C)c1ccc(-n2cc(C(=O)O)cn2)cc1C#N`
Output: 5

---

experiment: Tmax in rat at 3 mg/kg, po measured during 5 mins to 24 hrs post dose by LC-MS/MS method; type: ADME, organism-based; conditions: in vivo
MEASURE NAME: Tmax

Task: Identify measured Tmax associated with `CC(C)(C)COc1ccc(-n2cc(C(=O)O)cn2)cc1C#N`
Output: 30 min

---

target: Xanthine dehydrogenase/oxidase (Bos taurus, UniProt P80457)
Sequence (P80457 whole entry): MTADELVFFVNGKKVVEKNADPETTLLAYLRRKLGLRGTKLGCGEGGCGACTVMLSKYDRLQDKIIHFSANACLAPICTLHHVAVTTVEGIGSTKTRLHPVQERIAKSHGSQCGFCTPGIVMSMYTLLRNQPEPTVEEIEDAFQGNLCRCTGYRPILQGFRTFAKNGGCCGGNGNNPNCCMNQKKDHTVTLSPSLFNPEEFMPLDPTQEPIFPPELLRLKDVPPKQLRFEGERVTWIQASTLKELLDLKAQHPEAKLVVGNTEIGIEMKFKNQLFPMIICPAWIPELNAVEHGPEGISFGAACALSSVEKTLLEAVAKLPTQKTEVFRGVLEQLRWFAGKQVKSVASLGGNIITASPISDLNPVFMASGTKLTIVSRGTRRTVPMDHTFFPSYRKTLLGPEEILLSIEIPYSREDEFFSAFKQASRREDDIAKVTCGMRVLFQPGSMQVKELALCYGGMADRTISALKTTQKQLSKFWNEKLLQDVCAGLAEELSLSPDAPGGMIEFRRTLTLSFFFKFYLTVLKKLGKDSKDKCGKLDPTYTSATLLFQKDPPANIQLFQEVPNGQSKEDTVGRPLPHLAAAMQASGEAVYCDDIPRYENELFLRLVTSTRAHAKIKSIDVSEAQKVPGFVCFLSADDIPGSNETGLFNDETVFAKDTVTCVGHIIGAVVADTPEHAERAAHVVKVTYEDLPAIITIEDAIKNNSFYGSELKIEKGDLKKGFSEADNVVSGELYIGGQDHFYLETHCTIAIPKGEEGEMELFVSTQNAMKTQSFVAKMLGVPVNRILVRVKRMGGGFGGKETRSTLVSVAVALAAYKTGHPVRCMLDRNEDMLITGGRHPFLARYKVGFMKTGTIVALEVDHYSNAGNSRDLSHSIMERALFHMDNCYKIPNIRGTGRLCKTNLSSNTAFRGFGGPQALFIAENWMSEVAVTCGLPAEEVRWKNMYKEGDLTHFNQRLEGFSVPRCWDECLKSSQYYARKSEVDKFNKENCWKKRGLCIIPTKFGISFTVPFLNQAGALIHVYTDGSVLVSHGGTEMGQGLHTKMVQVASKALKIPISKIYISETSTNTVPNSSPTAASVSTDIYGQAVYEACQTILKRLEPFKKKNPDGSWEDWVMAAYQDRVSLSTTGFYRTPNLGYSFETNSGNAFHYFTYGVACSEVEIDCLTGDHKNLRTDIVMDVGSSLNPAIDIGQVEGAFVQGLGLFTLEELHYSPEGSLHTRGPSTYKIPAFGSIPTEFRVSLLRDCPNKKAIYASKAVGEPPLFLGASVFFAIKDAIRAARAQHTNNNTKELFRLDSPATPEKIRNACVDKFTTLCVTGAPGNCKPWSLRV
// NB: equality with 7 nM counts as label 0; only IC50 strictly below is label 1

See these solved cases before continuing.
- COMPOUND: "Cc1nn(-c2ccc(N3CCCCC3)c([N+](=O)[O-])c2)cc1C(=O)O"
  SYSTEM UNDER TEST: "Xanthine dehydrogenase/oxidase (Bos taurus, UniProt P80457)"
  LABEL CLASS: "label 0"
- COMPOUND: "CC(C)CN(C)c1ccc(-n2cc(C(=O)O)cn2)cc1C#N"
  SYSTEM UNDER TEST: "Xanthine dehydrogenase/oxidase (Bos taurus, UniProt P80457)"
  LABEL CLASS: "label 1"
- COMPOUND: "Cc1nn(-c2ccc(OC(C)C)c(C#N)c2)cc1C(=O)O"
  SYSTEM UNDER TEST: "Xanthine dehydrogenase/oxidase (Bos taurus, UniProt P80457)"
  LABEL CLASS: "label 0"
- COMPOUND: "CCOc1ccc(-n2cc(C(=O)O)c(C)n2)cc1C#N"
  SYSTEM UNDER TEST: "Xanthine dehydrogenase/oxidase (Bos taurus, UniProt P80457)"
  LABEL CLASS: "label 0"
- COMPOUND: "CC1CCCN1c1ccc(-n2cc(C(=O)O)cn2)cc1C#N (stereo unspecified)"
  SYSTEM UNDER TEST: "Xanthine dehydrogenase/oxidase (Bos taurus, UniProt P80457)"
  LABEL CLASS: "label 1"

Attention now turns to another entry.
Task: # check: IC50 < 7 nM for `Cc1nn(-c2ccc(N3CCCCC3)c(C#N)c2)cc1C(=O)O`
Output: label 0
